- measurement_notes: Protein binding in rat plasma at 5 uM measured after 4 hrs by LC-MS/MS analysis
- Type: ADME, cell-free
- assay_conditions: read-out: PPB
assay_readout: fraction unbound at 4 h, 5 µM

Data point: O=C(Nc1cccc(C(F)(F)F)c1)c1sc(=S)n2c1[nH]c(=O)c1cc(Br)ccc12 ; fraction unbound at 4 h, 5 µM = < 0.03

====

- measurement_notes: Tmax in Sprague-Dawley rat at 10 mg/kg, po by LC-MS analysis
- Assay type: ADME, organism-based
- assay_conditions: in vivo
assay_readout: Tmax (h)
Report as a plain number; the unit h is understood.

Data point: O=C(Nc1cccc(C(F)(F)F)c1)c1sc(=S)n2c1[nH]c(=O)c1cc(Br)ccc12 ; Tmax = 6.67
